# measuredTarget: T1, human IL-1β (human, UniProt P01584 117-269)
# T1 construct: antigen of the ABT2 dAbs; also called hIL-1β; IL-1 beta
# method: IC50 column of Table 63; receptor binding assay presumed
recordedMetric: IC50 (nM)
Output spec: scalar in nM, unitless text.

Completed entries (count: 3):
binder	unitInfo	IC50
ABT2-65-143 (other, VH dAb) VH: EVQLLESGGGLVQPGGSLRLSCAASGFTFEDYQMGWVRQAPGKGLEWVSSISAMGNRTYYADSVKGRFTISRDDSKNTLYLQMNSLRAEDTAVYYCAENLVRLQRDRWMFDYWGQGTLVTVSS	nM	5
ABT2-65-152 (other, VH dAb) VH: EVQLLESGGGLVQPGGSLRLSCAASGFTFEDYQMGWVRQAPGKGLEWVSSISAMGNRTYYADSVKGRFTISRDDSKNTLYLQMNSLRAEDTAVYYCAENLVRWKSSAWMFDYWGQGTLVTVSS	nM	5
ABT2-108 (other) VH: EVQLLESGGGLVQPGGSLRLSCAASGFTFAEYTMMWVRQAPGKGLEWVSRIGQDGKNTYYADSVKGRFTISRDNSKNTLYLQMNSLRAEDTAVYYCAKYTGRVGVHHLFDYWGQGTLVTSS	nM	70

Field: next binder
Kindly note the recorded IC50 for ABT2-65-156 (other, VH dAb) VH: EVQLLESGGGLVQPGGSLRLSCAASGFTFEDYQMGWVRQAPGKGLEWVSSISAMGNRTYYADSVKGRFTISRDDSKNTLYLQMNSLRAEDTAVYYCAQNLVRIGRNKWMFDYWGQGTLVTVSS , which is 5
